Known koff of a selection of binders
Biological target: T1, Cynomolgus monkey CD98 ECD with C-terminal His-tag (cynomolgus monkey, UniProt P08195 105-529 (human entry))
T1 construct: The entry includes the linker and the polyhistidine tag; also called cyCD98 ECD
T1 chain: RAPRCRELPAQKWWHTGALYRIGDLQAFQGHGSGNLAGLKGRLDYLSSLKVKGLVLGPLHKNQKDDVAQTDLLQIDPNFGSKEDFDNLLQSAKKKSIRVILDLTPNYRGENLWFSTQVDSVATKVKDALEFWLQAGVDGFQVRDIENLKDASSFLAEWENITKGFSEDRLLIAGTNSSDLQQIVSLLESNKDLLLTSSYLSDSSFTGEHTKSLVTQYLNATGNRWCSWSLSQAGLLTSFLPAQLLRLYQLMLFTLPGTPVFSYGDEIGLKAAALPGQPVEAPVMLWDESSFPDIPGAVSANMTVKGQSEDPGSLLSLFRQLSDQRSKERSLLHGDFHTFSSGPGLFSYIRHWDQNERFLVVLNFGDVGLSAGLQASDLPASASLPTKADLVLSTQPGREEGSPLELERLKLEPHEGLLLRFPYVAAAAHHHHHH
Test: SPR (Biacore), antibody captured on anti-Fc surface, CD98 ECD in solution
Report as a plain number; the unit s⁻¹ is understood.

{"columns": ["Binder", "Obs value"],
 "data": [
  ["huAb15v3 (antibody, V domains shown, Humanized, further engineered clone of chAb15, converted to IgG and expressed as a full-length antibody) VH: EVQLVESGGGVVQPGRSLRLSCAASGFTFSDYTMAWVRQAPGKGLEWVATIIYSGRGTYYRDAVKGRFTISRDNSKSTLYLQMNSLRAEDTAVYYCARQSDDTYYYWGYFDYWGQGTMVTVSS VL: DIVMTQSPDSLAVSLGERATINCKSSQSLLFSGNQKNYLAWYQQKPGQSPKLLIYWASTRQSGVPDRFSGSGSGTDFTLTIRSLQAEDVAIYYCQQYYGSPYTFGQGTKLEIK", 0.00014]
]}

Could you now look at the following binder, please?
Input: Suppose we examine the binder huAb15v5 (antibody, V domains shown, Humanized, further engineered clone of chAb15, converted to IgG and expressed as a full-length antibody) VH: EVQLVESGGGVVQPGRSLRLSCAASGFTFSDYTMAWVRQAPGKGLEWVATIIYTGRGTYYRDAVKGRFTISRDNSKSTLYLQMNSLRAEDTAVYYCARQSDDTYYYWGYFDYWGQGTMVTVSS VL: DIVMTQSPDSLAVSLGERATINCKSSQSLLFSGNQKNYLAWYQQKPGQSPKLLIYWASTRQSGVPDRFSGSGSGTDFTLTIRSLQAEDVAIYYCQQYYSSPYTFGQGTKLEIK ; what koff value has been reported?
Output: 0.00018
